# Organism: Homo sapiens
# MEASUREMENT DESCRIPTION: Selectivity ratio of Ki for human A1 receptor expressed in CHO cells to Ki for human A2A receptor expressed in CHO cells
# Assay type: cell-based
MEASURED METRIC: Ratio Ki

Entry under review: `CC(=O)Nc1nc2sc3c(c2c(=O)[nH]1)CCC3` . Reported Ratio Ki?
> 3.3

Entry under review: `CC(=O)Nc1nc2sc(C)c(C)c2c(=O)[nH]1` . Reported Ratio Ki?
> 1

Entry under review: `Cc1sc2nc(NC(=O)c3ccccc3)[nH]c(=O)c2c1C` . Reported Ratio Ki?
> 46

Reference source for all entries: ChEMBL document CHEMBL4342407
